The values you see were collected from PubChem BioAssay (EPA / NIEHS).

assay: ATG_MRE_CIS: Attagene CIS-FACTORIAL HepG2 Assay for human Metal Responsive Element (MRE) (AID 2282954); conditions: HepG2 MRE cis-reporter transcription, Attagene multiplex; actives raise or lower the signal
Activity calls are given as the source filed them. Rule for the calls: active = hit-call score of the fitted dose curve at least 0.9, where 1 is the maximum; inactive = score below 0.9.
Hi! Could you answer with just one of these? active, inactive

Solved entries (count: 5):
Compound	Class
CC(C)c1cccc(C(C)C)c1N	inactive
CC/C=C\CCOC(=O)c1ccccc1O	inactive
CCCCCC[C@@H](O)C/C=C\CCCCCCCC(=O)OCC(O)CO (stereo partly drawn)	active
C=CCCCCCCCCC=O	inactive
C=C(C)C(=O)OCCOC(=O)C(=C)C	inactive

Query block: Dear all, I need the recorded test outcome for CCC1COC(=O)O1 (stereo not drawn) , thank you.
Result block: inactive

Query block: Dear all, I need the recorded test outcome for C=CC(=O)O[C@H]1C[C@@H]2CC[C@@]1(C)C2(C)C , thank you.
Result block: inactive

Query block: Dear all, I need the recorded test outcome for CC=CC(=O)OCC(C)C , thank you.
Result block: inactive

---

biological target: human Retinoid X Receptor beta (RXRb), RXRB (gene 6257); test: ATG_RXRb_TRANS: Attagene TRANS-FACTORIAL HepG2 Assay for human Retinoid X Receptor beta (RXRb) (AID 2283013)
Results filed as inconclusive are left out. Activity calls are given as the source filed them. The calls were made as follows: active = hit-call score of the fitted dose curve at least 0.9, where 1 is the maximum; inconclusive = response in the unintended direction; inactive = score below 0.9.
Hi! Could you answer with just one of these? active, inactive

Compound	Tested system	Class
COc1cc(C)ccc1O	human Retinoid X Receptor beta (RXRb), RXRB (gene 6257)	inactive

Query block: Dear all, I need the recorded test outcome for CCCCCCCCCCCCc1ccc(O)cc1 , thank you.
Result block: active

Query block: Dear all, I need the recorded test outcome for OCCCc1ccccc1 , thank you.
Result block: inactive

Query block: Dear all, I need the recorded test outcome for Cc1ccc2c(c1)CCCN2 , thank you.
Result block: inactive

Query block: Dear all, I need the recorded test outcome for CC12CCC(CC1)C(C)(C)O2 , thank you.
Result block: inactive

Query block: Dear all, I need the recorded test outcome for CCCCCCCCCCCCCc1ccccc1 , thank you.
Result block: inactive

---

experiment: ATG_VDRE_CIS: Attagene CIS-FACTORIAL HepG2 Assay for human Vitamin D Receptor Element (VDRE) (AID 2282968); details: HepG2 VDRE cis-reporter transcription, actives raise or lower the signal
The source made the active and inactive calls. The calls were made as follows: active = hit-call score of the fitted dose curve at least 0.9, where 1 is the maximum; inactive = score below 0.9.
Hi! Could you answer with just one of these? 1 (active), -1 (inactive)

Compound	Class
CCOC(=O)c1ccc(C)cc1	-1
C=CCNCC=C	-1
O=C(O)c1ccc2c(c1)C(=O)OC2=O	-1
Nc1ccc(O)c([N+](=O)[O-])c1	-1
CC=C(C)C=CC=C(C)C	1

Query block: Dear all, I need the recorded test outcome for CCOc1ccc(NC(N)=O)cc1 , thank you.
Result block: -1

Query block: Dear all, I need the recorded test outcome for C=CC(=O)OCC(C)OCC(C)OCC(C)OC(=O)C=C (configuration not stated) , thank you.
Result block: 1

Query block: Dear all, I need the recorded test outcome for CC(Cl)COP(=O)(OCC(C)Cl)OCC(C)Cl (configuration not stated) , thank you.
Result block: 1

Query block: Dear all, I need the recorded test outcome for C=CC(=O)OCCCCCCCC(C)C , thank you.
Result block: -1

Query block: Dear all, I need the recorded test outcome for C/C=C/C=C/CCCCCCCO , thank you.
Result block: 1

Query block: Dear all, I need the recorded test outcome for NNS(=O)(=O)c1ccc(Oc2ccc(S(=O)(=O)NN)cc2)cc1 , thank you.
Result block: -1

Query block: Dear all, I need the recorded test outcome for COc1nccnc1CC(C)C , thank you.
Result block: -1

Query block: Dear all, I need the recorded test outcome for CC(C)OC(=O)c1ccccc1 , thank you.
Result block: -1

Query block: Dear all, I need the recorded test outcome for CCCC=C(C=O)CC , thank you.
Result block: -1

Query block: Dear all, I need the recorded test outcome for CCCCCCCCCCCCCC(=O)OC(C)C , thank you.
Result block: -1

Query block: Dear all, I need the recorded test outcome for c1ccc(-c2nc3ccccc3[nH]2)cc1 , thank you.
Result block: -1

Query block: Dear all, I need the recorded test outcome for CC(CC=O)CC(C)(C)C (configuration not stated) , thank you.
Result block: -1

Query block: Dear all, I need the recorded test outcome for COC(=O)C=Cc1ccccc1 , thank you.
Result block: -1

Query block: Dear all, I need the recorded test outcome for CC(=O)CC(=O)Nc1ccccc1C , thank you.
Result block: -1

Query block: Dear all, I need the recorded test outcome for CCC[Si](OC)(OC)OC , thank you.
Result block: -1

Query block: Dear all, I need the recorded test outcome for Clc1cccnc1 , thank you.
Result block: -1
